test: qHTS assay to identify small molecule antagonists of the androgen receptor (AR) signaling pathway using the MDA cell line - cell viability counter screen (AID 743041; further: on the % scale 0 is the no-effect control and ±100 the full control effect; nearly all actives have a fitted effect of over 45% in size); settings: MDA-kb2 viability, CellTiter-Fluor, 16 h, cells co-treated with R1881 androgen agonist; series mostly up to 70.3 µM
Results filed as inconclusive are left out. Activity calls are given as the source filed them. The call rests on the fitted dose curve; in most records, active means well fitted cell-killing curve with a large enough effect in the repeat runs; inconclusive means weak or mixed curves, or effect the other way; inactive means flat fitted curve, though single readings scatter.
outcome_measure: viability change, negative = cytotoxic

Worked examples, 10 compounds total:
CCCCC(CC)COC(=O)CC#N (centres undefined)    inactive
COC(=O)/C=C(\C)CCC=C(C)C    inactive
Cc1ccc(N)nc1    inactive
COC(=O)c1c(C)cc(O)c(C)c1O    inactive
O=S(=O)(O)CC(O)CCl (centres undefined)    inactive
COCCCOc1cc(C[C@@H](C[C@H](N)[C@@H](O)C[C@H](C(=O)NCC(C)(C)C(N)=O)C(C)C)C(C)C)ccc1OC    inactive
C[n+]1ccccc1/C=N/O    inactive
N=C(N)N    inactive
CCCC(C)C(O)CC (centres undefined)    inactive
CCCCN(CCCC)CCCCCCN(CCCC)CCCC    inactive

### Prompt Please report the recorded viability change, negative = cytotoxic for `O=c1[nH]c(=O)c2cn[nH]c2[nH]1` .
### Response inactive

### Prompt Would you kindly share the measured viability change, negative = cytotoxic for `C=CCON/C(CCC)=C1\C(=O)CC(C)(C)C(C(=O)OC)=C1O` ?
### Response inactive

### Prompt For `O=C(O)/C=C(\CC(=O)O)C(=O)O` , what is its reported viability change, negative = cytotoxic?
### Response inactive

### Prompt Using the record for `Nc1cc(S(=O)(=O)O)ccc1O` , report its viability change, negative = cytotoxic.
### Response inactive

====

target: Nuclear receptor subfamily 1 group I member 2 (Rattus norvegicus) (UniProt Q9R1A7); assay: Rat pregnane X receptor (rPXR) activation by small molecules, qHTS assay (AID 1346983); conditions: rPXR luciferase reporter cells, One-Glo luminescence, 24 h; stronger effect = higher value; further: on the % scale 0 is the no-effect control and ±100 the full control effect; nearly all actives have a fitted effect of over 20% in size
Sequence (Q9R1A7 whole entry, looked up): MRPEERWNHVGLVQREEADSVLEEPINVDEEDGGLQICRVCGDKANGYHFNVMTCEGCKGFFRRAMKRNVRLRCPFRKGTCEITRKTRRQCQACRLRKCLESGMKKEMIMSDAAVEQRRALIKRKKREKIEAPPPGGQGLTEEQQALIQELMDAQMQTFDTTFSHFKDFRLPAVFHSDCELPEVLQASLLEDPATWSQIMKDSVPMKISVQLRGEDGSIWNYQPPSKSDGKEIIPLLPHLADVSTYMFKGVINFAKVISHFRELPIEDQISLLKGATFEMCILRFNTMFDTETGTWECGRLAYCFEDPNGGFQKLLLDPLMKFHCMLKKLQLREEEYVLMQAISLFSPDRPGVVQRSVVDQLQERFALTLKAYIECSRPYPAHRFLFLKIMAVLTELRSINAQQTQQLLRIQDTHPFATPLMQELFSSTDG
Results filed as inconclusive are left out. Activity calls are given as the source filed them. Calls come from the whole dose curve; as a rule, active = well fitted activation curve with a large enough effect in the repeat runs; inconclusive = weak or mixed curves; inactive = no such curve, though single readings can be large or run the other way. Non-standard residues stand in square brackets, D forms with d. Residues, ends and D or L forms follow the SMILES beside them. *: point of attachment. Sta = CC(C)C[C@H](N)[C@@H](O)CC(=O)O; Isovaleryl = CC(C)CC(=O)*
outcome_measure: max activation

### Prompt Recorded max activation for `COc1cc(OC)cc(OC)c1` with Nuclear receptor subfamily 1 group I member 2 (Rattus norvegicus) (UniProt Q9R1A7), please?
### Response -1.98% (inactive)

### Prompt Lab request: please report max activation under test system Nuclear receptor subfamily 1 group I member 2 (Rattus norvegicus) (UniProt Q9R1A7) for `C[C@@H](CN1CC(=O)NC(=O)C1)N1CC(=O)NC(=O)C1`
### Response -0.624% (inactive)

### Prompt Give the reported max activation for CC(C)CC(=O)N[C@H](C(=O)N[C@H](C(=O)N[C@@H](CC(C)C)[C@@H](O)CC(=O)N[C@@H](C)C(=O)N[C@@H](CC(C)C)[C@@H](O)CC(=O)O)C(C)C)C(C)C (Isovaleryl-VV[Sta]A[Sta]-OH) (system: Nuclear receptor subfamily 1 group I member 2 (Rattus norvegicus) (UniProt Q9R1A7)).
### Response -4.42% (inactive)

### Prompt Request: max activation, test system Nuclear receptor subfamily 1 group I member 2 (Rattus norvegicus) (UniProt Q9R1A7), entry `CC(=O)Nc1ccc(OCCOCCOc2ccc(NC(C)=O)cc2)cc1`
### Response -0.187% (inactive)

### Prompt Test system Nuclear receptor subfamily 1 group I member 2 (Rattus norvegicus) (UniProt Q9R1A7); read-out max activation; what value for `CCOC(=O)COc1ccc2c(C)c(CCN(CC)CC)c(=O)oc2c1Cl` ?
### Response 4.23% (inactive)

### Prompt Form field - read-out: max activation; system: Nuclear receptor subfamily 1 group I member 2 (Rattus norvegicus) (UniProt Q9R1A7); submitted item: CN1C(CCl)Nc2cc(Cl)c(S(N)(=O)=O)cc2S1(=O)=O (stereo unspecified)
### Response -9.91% (inactive)

====

assay: qHTS assay to test for compound auto fluorescence at 460 nm (blue) in HepG2 cell free culture (AID 720685); conditions: Cell-free culture medium, blue autofluorescence 405/460 nm; series mostly up to 91.3 µM; further: on the % scale 0 is the no-effect control and ±100 the full control effect
The source made the active and inactive calls. Calls come from the whole dose curve; as a rule, active = well fitted curve in the direction sought with a large enough effect in the repeat runs; inconclusive = weak or mixed curves; inactive = flat fitted curve, though single readings scatter.
outcome_measure: fluorescence, % of fluorescent control

Guide cases for fluorescence, % of fluorescent control, answers given:
CC[C@@]1(c2ccccc2)NC(=O)N(C)C1=O    inactive
CC12CCCC=C1C(=O)OC2=O (stereo unspecified)    inactive
CC(C)(C)NCC(O)COc1cccc2c1CCC(=O)N2 (stereo unspecified)    -0.0069% [at 18.6 µM] (inactive)
CC(=O)OCC(=O)[C@@]1(O)CC[C@H]2[C@@H]3CCC4=CC(=O)C=C[C@]4(C)[C@H]3[C@@H](O)C[C@@]21C    inactive
C[C@@H]1NC(=O)[C@@H](N)CNC(=O)[C@H](C2CCNC(N)=N2)NC(=O)/C(=C/NC(N)=O)NC(=O)[C@H](CNC(=O)C[C@@H](N)CCCN)NC1=O (stereo partly specified)    inactive
COC(=O)c1ccccc1Cl    inactive

### Prompt So what's the measured fluorescence, % of fluorescent control for this one? `CN(C)CCCN(C)C`
### Response -0.358% [at 3.72 µM] (inactive)

### Prompt Form field: reported fluorescence, % of fluorescent control of `Cc1cccc(N)n1`
### Response inactive

### Prompt Please report the recorded fluorescence, % of fluorescent control for `C=CC(=O)OCCOCCOCC` .
### Response inactive

### Prompt What value of fluorescence, % of fluorescent control has been recorded for this entry: `CCN(CC)CC`
### Response inactive

### Prompt Given the entry `Clc1cc(Cl)c(Cl)c(Cl)c1Cl` , report its measured fluorescence, % of fluorescent control.
### Response inactive

### Prompt # lookup: fluorescence, % of fluorescent control of `CCOC(=O)c1ccc(N(C)C)cc1`
### Response inactive

### Prompt For `CCCc1ccc(O)c(OC)c1` , what is its reported fluorescence, % of fluorescent control?
### Response inactive

====

target: Thyrotropin receptor (Homo sapiens) (UniProt P16473); experiment: qHTS assay to identify small molecule antagonists of the thyroid stimulating hormone receptor (TSHR) signaling pathway (AID 1259385); conditions: TSHR-HEK293 cAMP HTRF, TSH-stimulated antagonist mode; series mostly up to 92.4 µM; further: on the % scale 0 is the no-effect control and ±100 the full control effect; nearly all actives have a fitted effect of over 20% in size
Sequence (P16473 whole entry, looked up): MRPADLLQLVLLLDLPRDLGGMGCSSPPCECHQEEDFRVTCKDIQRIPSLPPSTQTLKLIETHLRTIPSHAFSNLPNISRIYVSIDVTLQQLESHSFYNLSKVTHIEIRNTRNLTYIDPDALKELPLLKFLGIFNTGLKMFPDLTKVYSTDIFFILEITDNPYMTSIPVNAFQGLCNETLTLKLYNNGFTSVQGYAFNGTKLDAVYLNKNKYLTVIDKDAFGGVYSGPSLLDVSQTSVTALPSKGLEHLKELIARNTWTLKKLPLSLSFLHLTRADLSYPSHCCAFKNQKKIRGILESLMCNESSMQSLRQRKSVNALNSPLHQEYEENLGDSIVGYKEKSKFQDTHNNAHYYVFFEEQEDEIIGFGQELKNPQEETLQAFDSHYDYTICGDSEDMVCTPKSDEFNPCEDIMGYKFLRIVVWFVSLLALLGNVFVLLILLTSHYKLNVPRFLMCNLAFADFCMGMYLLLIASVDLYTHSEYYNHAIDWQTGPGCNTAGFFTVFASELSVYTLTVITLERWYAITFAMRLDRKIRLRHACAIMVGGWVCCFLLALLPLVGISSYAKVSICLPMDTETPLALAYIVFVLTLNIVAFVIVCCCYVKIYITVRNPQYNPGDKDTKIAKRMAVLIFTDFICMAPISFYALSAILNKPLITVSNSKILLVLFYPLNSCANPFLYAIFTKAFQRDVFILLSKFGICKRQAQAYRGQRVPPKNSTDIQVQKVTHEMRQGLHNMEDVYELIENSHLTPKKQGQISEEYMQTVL
Results filed as inconclusive are left out. Activity calls are given as the source filed them. The call rests on the fitted dose curve.
outcome_measure: activity change, negative = inhibition

Worked cases, answers included:
CC(O)CCCCn1c(=O)c2c(ncn2C)n(C)c1=O (stereo not given)    inactive
c1coc(Cn2cccc2)c1    inactive
O=C(O)CCCCCCCCCC(=O)O    inactive
CN(C)CCc1c[nH]c2ccc(C[C@H]3COC(=O)N3)cc12    inactive
O=C1CC2(CCCC2)CC(=O)N1CCNCC1COc2ccccc2O1 (stereo not given)    inactive

### Prompt Using the record for `C=CCN(CC=C)CC=C` , report its activity change, negative = inhibition.
### Response inactive

### Prompt I'd like to know its activity change, negative = inhibition. The molecule in question is CCCCC(O)/C=C(C)/C=C/C=C/C(=O)N1CCCC1=O (stereo not given)
### Response inactive

### Prompt Report activity change, negative = inhibition for `Nc1cc(S(=O)(=O)O)ccc1O` please.
### Response inactive

### Prompt What value of activity change, negative = inhibition has been reported for the following molecule? `C[n+]1ccccc1/C=N/O`
### Response inactive

### Prompt Returns the measured activity change, negative = inhibition for the input molecule. Input: `O=c1c(O)c(O)c1=O`
### Response inactive

### Prompt I have this molecule here, CCCC(=O)C(CC)Sc1ccoc1C (stereo not given) , and I need its recorded activity change, negative = inhibition.
### Response inactive

### Prompt activity change, negative = inhibition for `CCC(=O)OCCOc1ccccc1` ?
### Response inactive

### Prompt What measured activity change, negative = inhibition goes with `CCCCCCCCOCCC#N` ?
### Response inactive

### Prompt Requested field: activity change, negative = inhibition. Item: `CC/C=C\CCOC(=O)c1ccccc1`
### Response inactive

### Prompt What does the data say about its activity change, negative = inhibition? Entry: `CCO[Si](CC(C)C)(OCC)OCC`
### Response inactive

====

assay: qHTS assay to identify small molecule agonists of the vitamin D receptor (VDR) signaling pathway - cell viability counter screen (AID 743224); details: VDR-bla HEK293T viability, CellTiter-Glo luminescence, 16 h; series mostly up to 62.6 µM; further: on the % scale 0 is the no-effect control and ±100 the full control effect; nearly all actives have a fitted effect of over 50% in size
Inconclusive results are not listed. Activity calls are given as the source filed them. The call rests on the fitted dose curve; in most records, active means well fitted cell-killing curve with a large enough effect in the repeat runs; inconclusive means weak or mixed curves, or effect the other way; inactive means no such curve, though single readings can be large or run the other way.
outcome_measure: activity change, negative = cytotoxicity

Worked cases, answers included:
Cc1cccc(N)n1    inactive
O=C1CC2(CCCC2)CC(=O)N1CCNCC1COc2ccccc2O1 (stereo not given)    inactive
CN(C)CCc1c[nH]c2ccc(C[C@H]3COC(=O)N3)cc12    inactive
COc1ccc(Cl)cc1C    inactive
COC(=O)c1ccccc1Cl    inactive
CCOC(=O)CN1CCCC1=O    inactive

### Prompt Please give the measured activity change, negative = cytotoxicity for this compound: `CCCCCC(=O)CC`
### Response inactive

### Prompt Fill in: activity change, negative = cytotoxicity of `COC(=O)c1ccc(NC(C)=O)cc1OC` is ___
### Response inactive
